Data provenance: patent US20180258158A1

Assayed target: T1, mouse serum albumin (MSA), full length (mouse, UniProt P07724 25-608)
T1 construct: mature; Immobilized on CM5 chip (SPR) or coated on plates (ELISA); also called mouse albumin; murine serum albumin
Test name: SPR off-rate ratio to parent ADX_7016_A01, MSA, 25 C
Measured parameter: MSA kd/Parent kd

Study these solved cases before continuing.
Binder: ADX_6727_D06 (Y44A/K85S) (designed binder, Full His6-tagged entry) MGVSDVPRDLEVVAATPTSLLISWDAPAVTVRYYRITYGREVQKYSDLGPLYIAQEFTVPGSKSTATISGLKPGVDYTITVYAVTGSGESPASSSPISINYRTEIDKPSQHHHHHH
Measured parameter: MSA kd/Parent kd
Quantitative result: 14.5
--
Binder: ADX_6727_C03 (Y35S) (designed binder, Full His6-tagged entry) MGVSDVPRDLEVVAATPTSLLISWDAPAVTVRYYRITYGREVQKSSDLGPLYIYQEFTVPGSKSTATISGLKPGVDYTITVYAVTGSGESPASSKPISINYRTEIDKPSQHHHHHH
Measured parameter: MSA kd/Parent kd
Quantitative result: 2.8
--
Binder: ADX_6727_G10 (Y35S/K85A) (designed binder, Full His6-tagged entry) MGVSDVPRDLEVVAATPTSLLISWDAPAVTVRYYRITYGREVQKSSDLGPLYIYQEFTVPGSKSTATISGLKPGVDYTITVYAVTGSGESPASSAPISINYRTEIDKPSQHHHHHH
Measured parameter: MSA kd/Parent kd
Quantitative result: 3.2

A = ADX_6727_G05 (I43S/K85A) (designed binder, Full His6-tagged entry) MGVSDVPRDLEVVAATPTSLLISWDAPAVTVRYYRITYGREVQKYSDLGPLYSYQEFTVPGSKSTATISGLKPGVDYTITVYAVTGSGESPASSAPISINYRTEIDKPSQHHHHHH
B = ADX_6727_F06 (L41A/K85T) (designed binder, Full His6-tagged entry) MGVSDVPRDLEVVAATPTSLLISWDAPAVTVRYYRITYGREVQKYSDLGPAYIYQEFTVPGSKSTATISGLKPGVDYTITVYAVTGSGESPASSTPISINYRTEIDKPSQHHHHHH
C = ADX_6727_D02 (R30N) (designed binder, Full His6-tagged entry) MGVSDVPRDLEVVAATPTSLLISWDAPAVTVRYYRITYGNEVQKYSDLGPLYIYQEFTVPGSKSTATISGLKPGVDYTITVYAVTGSGESPASSKPISINYRTEIDKPSQHHHHHH
Incoming: Order field: MSA kd/Parent kd | Direction: descending (largest first) Quick reminder: the answer is the labels in the order asked.
Outgoing: A, B, C
(A: 27, B: 12.8, C: 2.8)
